Below are pIC50 measurements against JNK3 (Homo sapiens) drawn from the literature.
pIC50 is a log-scale quantity: -log10 of the concentration expressed in molar.

>>> quantitative_result("c1ncc(-c2c[nH]c3ncc(C4CCCCC4)cc23)s1")
6.24

Recorded pIC50 (molecule COc1ccc2c(c1)CC(C(=O)N[C@@H](C)C(=O)N(CC(=O)NCCCCCCNC(=O)c1ccc(-c3n[nH]c4ccccc34)cc1)CC(C)C)CO2 (stereo partly shown) ): 6.90

Entry under test: O=C(c1ccccc1)c1ccc2[nH]nc(-c3cccc(F)c3)c2c1 . Its pIC50 was 6.95

* * *

Below are IC50 values for JNK3 (Homo sapiens) collected from several publications.

Worked set:
>>> result("N#Cc1ccc2c(ccc(=O)n2CC(=O)Nc2scc(Br)c2-c2ncn[nH]2)c1")
"< 0.1 µM"
>>> result("N#CCc1cnc(-c2ccc3ccccc3c2)n1-c1ccnc(NC2CCOCC2)n1")
"< 0.03 µM"

Field IC50 (system: JNK3 (Homo sapiens)) for entry CCCS(=O)(=O)Nc1ccc(F)c(C(=O)c2c[nH]c3ncc(-c4ccc(C(=O)N(C)C)c(C)c4)cc23)c1F = ≤ 10 µM

Entry COc1ccc(C(=O)c2c[nH]c3ncc(-c4cccc(/C=C/C(=O)O)c4)cc23)c(Cl)c1 : IC50 on JNK3 (Homo sapiens) = ≤ 10 µM

Record Nc1cccc(-c2cnc3[nH]cc(C(=O)c4ccc5nsnc5c4)c3c2)c1 has JNK3 (Homo sapiens) IC50 equal to ≤ 10 µM

Short answer on JNK3 (Homo sapiens) for C#CCNC(=O)c1c[nH]c2ncc(-c3ccc(N(C)C)cc3)cc12 , IC50: 0.52 µM

Tested on JNK3 (Homo sapiens), the item CCOc1nc(-c2c[nH]c3ncc([C@H]4CC[C@H](N5CCOCC5)CC4)cc23)cs1 showed IC50 equal to 0.302 µM

The recorded IC50 with JNK3 (Homo sapiens) for C1=C(c2cnc3[nH]cc(-c4nccs4)c3c2)CCCC1 was 0.229 µM
